experiment: protease stability score; higher = more stable; yeast display proteolysis, trypsin and chymotrypsin;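 also: log10 excess protease needed over predicted unfolded state with 0 meaning unfolded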

| Chain | protease stability score |
| --- | --- |
| DEEAVNLINRLLEARKYNDPDSMKRLADENAQFVIGDKEVKGMETYARHVVQTMSRWRIDIKSVHHQSRGSKAEVDVRAKVNVNGRPDTLSITYRAHVTNGRIKELEVRFDPDQHRKLTS | 0.019 |
| DEEKHAESAIHHIIKVFKENNPDQFRRNADPNVKVNVGEHEVDGRDDLAKYMVDEANRVDHASYEIVHLDVRGDKARARVRVIVKFDGQERKYEYVFVFVEQNGEVVITKVQHQ | 1.1 |
| EKEEVKKAVEAFNENDEDELRDLVDENVKVVIGEKDYTGRETYWQFLRRMHEQIDHMHVKSVSVSNGVLRMDVEVVFNGRNVRFTIEVQAHDGQIKRVHYQARSEEQHKEFLKMLK | 1.58 |
| DEEEASTIAKVFRTNNWEELVRLADENAKVKVGDKEVHGRHVVDEMVKLISDAADTIKYDSYTVQGEKIEMVVKLVINGQKVEFKLTARAHNGRIKEIVLSVRDEDQKRKFEKEDG | 0.783 |
| DEDHMRTLIQRFIEAVQKGDEEQIKRLADPNARMRVGEREIHGREEIAKEIKDIRDQVDHINIRTWSFHNGEAHLEVEYNHNGQHRTMKLRIVVRNGKLQELEWRKG | 2.39 |
| DEENREVAERWLDALKRGDPKKANEQMDPNARLRVGNKTVHGREDFEQMIRKWQEHMSFSVETMTVQVEGNKIIIKATREVVVNGRPHKDTFEFEIEIQNGKIKEITIHFPEQELKEIED | 0.815 |
| DEEQRRMVQELFKALQHGDPDKVEELVDPNAQLHYGDKTVTGREEMHRWIEHLLDKIRIHFQRVSVRSRNGRAIAHATVEVVFNGKPDTVTFDLEANVHNGKFRRIVLRFPEEAQKKLKR | 1.48 |
| DDDADRRARKLDQARKEGDPDKMRKNMDPNVRMQIGDQEWSGRETIANKLATDLKRMDIEITIKRYTWHNGTADIDADETFNVDGRPNSDKVRMEVHFHNGRVEHQILRVPEEFKHRLHK | -0.115 |
| DEEQAKSMVHNMRQNNFEELDKLVDENVRVTVGNKKLHGREEYQKWLENWKKQADRITWDSIDVHGEKIDVEFRAVVNGRTVKQKVDIQFHNGRIKTARYQVTNEELDKIMKEMVE | 0.866 |
| DEEAAKKMMETWMKAVQKGDEKTVQKVYKPNGRWVHIDEERQGVEVVVKMMQQVKKQGVEFQIRRAKVEGDRVQFVYDLRLGDKTATFTVELQAQGGRVQEVKAEVSEEAKEIVTKG | 0.14 |
| DERAVEVLERFLEAQKTGNEEDLKKQVDPNARIQIGDKQVHGMDQAARNLVDTYEEIQIDFRIDRMSAHNGNVTVEAHQQINVNGRPFRNSVTMHAYLQGDKAKEINYRVPEKFENEVKS | -0.326 |

###

assay: protease stability score; higher = more stable; yeast display proteolysis, trypsin and chymotrypsin;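 also: log10 excess protease needed over predicted unfolded state with 0 meaning unfolded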
Binning of protease stability score into classes: low interval: < -0.07; middle interval: ≥ -0.07 and < 0.4; high interval: ≥ 0.4

| Chain | Cat |
| --- | --- |
| DEDEVKEVLKRIKSNDWHTLAKQADENARAVVGDKTYHGRTQMKKWMDKVRKRVDHIEISKVKQEGDKAVVDLVFQVNGVKVHLVIYIHVHNGKVVDVQAKARNEEELHKLKKAVS | middle interval |
| DEKEAQKLLEKIAKTMKNGDTETAKKLGKDDVEVKYADDEHHGPDAIKKMLEKLKKLGLEVEYKEIHVEGDTVRVKVQVHHGGTTAHMEVEYQARGRKVDNMRVKYDERAKKLIKHG | high interval |
| DEEENTKVMERFLDAVKRGNEDDLHELADKDVRLTVGDKEYHGREEIMEYLHEWRKKVDHIDFDSYTVRGNTVEVHFQVHDNGQNEDVVVQVEVHNGRVKTVRYRHK | high interval |
| EDENRKRIEHFLEVKEHGNPDEAKRLADPNVHLKVGDQTVHGRSQLSKILEKEVKEIRFSMQIDSYDDRPGRIKMSATMVLNINGQPIKVTFDAEYVLDNGRISHVEIRMDPTRLHEIKK | high interval |
| DEQKERDKAKKIARNFQKNNEHRFEEMMDPNVKFVYGDKEVNGRDTYRKNLHELMTRADSVDIDHVDVRNGRVNVNLVVEVNGNRAEDRVQFTVHNGHIVKVNIDPKVMETAKS | low interval |
| DNENVNHVKTWFQNIQENNPDELIKLIDKDARLRVGDKEFHGREQAKKEIEKRIRHIELEFKHVQVDHHNGRVVAHAVYTQNRNGRPKKVNVRYVFQIHNGKIKRAEQDEDG | middle interval |
| DESLRSKAEEFLKAIEHGDPDEASRQLDPNARFEIGDKEITGRETFDRTMHETRNQMRLEVKSYDARASNGRVHMEVRFQATHNGQPQDNREVQDFQFSNGRIERVSVEKDS | low interval |
| DDEAVRAAKRAFEAWIENDPEKMKHQVDENAHLHYGDKEVHGREDANRQVHEDERQMRIELRSVTFQHHNGRAKIDMKYVLDHNGKPETRKFDATAEARNGKITKMSIDVHQ | low interval |
| DEKKAEELARTVFEMADKGDKDTLRKIGMPNGEYKYVDKRYEGEQLALILVEQIKKVGAQVKVKRMEVRGDKVQADFDYEYGDKTVRTTARLEYKGDKLLRAEVEVSEEVKKIMTQG | low interval |

###

assay: protease stability score; higher = more stable; yeast display proteolysis, trypsin and chymotrypsin;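 also: log10 excess protease needed over predicted unfolded state with 0 meaning unfolded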
Assay readout: protease stability score

| Chain | Measurement |
| --- | --- |
| EEHLQKTVEEMIKLIRHGNEHKVQENIDPNARIVIGEKRIRGRETFAHLLSKRHKEQRYEVREIKLTVQGEKVKVSMDVVADINGKPIRFSIDMFLHASNGKVKDIQYRISEEQRDKQQG | -0.033 |
| DEKQLKHVQEWVETGDPDQFARNADPNAEIQIGNTTWQGREEIQKLAHRLKKQVDTQELKDIQVHGDHVLVNRVMEWDGHTFEFSMHIKVQNGRIKSVDVKVRDPSQQKELEDHLS | -0.087 |
| DEDDLRRLAEDFVRVLKTGDEDRLSELFDPNAKVSVGDHEYHGSENIVRALVEFARRVDELEVNSITIENGRVKIDAFATVNGKRVSVIIEIQYHNGRAKYVEFKYTSEEENRRFKN | 0.466 |
| DEKEVQKVLETMAKMFVNGNNEEVKKLGHDDIQVQYGDEEKHGPDAMVDFIKKYQDLGAEVEYKHLKVEGNEVEVDVEATLGGKTVRYKVKYEATGHKVHRVEVKYTDEAKDAIKKG | 0.657 |
| DEERDLDIAVEAAKNLLTGNEERFSKMAPPDVRIEYGDKTVHGREQANTAVKEFRDRVDHIEIKRIEKDGNKAHIEFIANVNGHRFTVTMVVDVSNGRVNQVDIRARNKEDQEKMKG | 0.06 |

###

assay: protease stability score; higher = more stable; yeast display proteolysis, trypsin and chymotrypsin;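 also: log10 excess protease needed over predicted unfolded state with 0 meaning unfolded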
Collected protease stability score values appear next to each entry.
Assay readout: protease stability score

| Chain | Measurement |
| --- | --- |
| DEEMLEVVKQLLHAYQNGDEEKVKRLLDPNARVQVGDQVVHGRESYANEVRKERDEIRFDVKITSVKVHNGKIDIKADVHVNINGKPVKFDVIIEYKMEGDKIKQINVQMDPSQWKERES | 0.913 |
| DERDATNAIESVMKAIKEGDPDQMQKNADPNARLQIGDKVYHGRETIVTLLKELAHRVDHLQIDSMHQHNGRVTVSILVQVNGQRRTVNIEAQARDGRLKNMHIDPEFWRQLER | 0.781 |
| EEELEEQLHRLLQLIREGNEHKVKEQMDPNVKVVYGDKEYKGRDEVETYLEEVINHWRVNFRVKHITVKGDKVDMKAEASYTHNGRPVNRKLTINAEIHNGRFKTLEFKWDG | 0.214 |
| DDEARKRIRTYWELYNQGNESKLEEMVDKDVRFEVGDKTIEGRRQVSTQLHREVREADVRVDIESIHVTGNKVDVEFRHSRDHNGQPETDQQRAEFNMDNGKIQSVVHRKDG | -0.204 |
| DESKQRTFAEELLTAWETGNDDQARKLADPNVRFHIGDKEISGRENFAKWAKEVRDRVDHIRYEHIEIRGEKVRVNVQLEFDGKTERRVIVFNVHDGQVKSMDVKTT | 1.34 |
| DEEQLKTIREWMNQVQRGNFDQWAKNLDKNAHVDYGDRSVTGREEWQRLMRRQKREIRMQVKVDHVSAQGENIEVQARVRFTHNGQPDETNNKITAKVHNGRVKHMRVEEDK | 0.248 |

###

experiment: protease stability score; higher = more stable; yeast display proteolysis, trypsin and chymotrypsin;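 also: log10 excess protease needed over predicted unfolded state with 0 meaning unfolded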
Binning of protease stability score into classes: class 1 = under 0.2, class 2 = from 0.2 up to 0.5, class 3 = 0.5 and over

| Chain | Cat |
| --- | --- |
| EDELRTMVDQVMEAQKTGDFDKFIEQFDPNAHRRVGDKEVEGQEEMRHEQKRRDDNIRVDYNRMSVQVSNGVAKLTVHLNAHVNGKPVRLTIDIVFHARNGRFQSMQVDFTREQEKRKRS | class 1 |
| DDSREIEKFMTTVERALRRGDEHKLREMFPEDAHLEVGDKTYRGRENVVEANKEWANKFDHIHIRYDKLRVDNGKFDITITYVLKHNGRQETRRAKVVAHKTNGQVKMKSVFDT | class 2 |
| DDSFVEKLQELLEDGNFERVADMADPNAQFRYGNRDLHGREELRKDAREFLSRVDHYQVDSFHVDNGQLNVTAQATFDGRDYKFTMTLRAKNGRVKSFKISFTSEQQNRQLDEKRE | class 1 |
| DDEKREKILKTFVDLFMNGDEEDIQRMMDENARASVGDKTYHGQEQVNKALKEIRDQFDRVEVKHIHVSGDKFRINMVINVNGKHVHVEVEISVHNGRIHEISFDPEHLTKMRN | class 2 |
| DDDALRRAKEMDDQIKNGNEHEYQKMVDPNAREHIGDTTYSGRENLVKLVRDRRRHMREKVDITEMESSGDKLRIVYRAEQEHNGQPRKKRRRKVIRLSNGRVQEVKVVDDQ | class 2 |
| DHRQQVRDIFKEMQDARRKGNEKTLQKLVDPNAKAEYGDKTYHGRENVAKMLLDEAKRVDHFEVHIKTFSIKNGTARVHADVVVKHDGQKRSTDVFYVFRDHNGQMLLVRARTQ | class 3 |
| DEEQEKHVSHYLELQKHGNEDELLRTVDPNATATVGDKEYHGMKHVAHHLVNTLKRINVKIDRLDLKVEGNTARIDQVRVQKTNGKPDRYRLKQTVQFHNGRFKRVTADVRR | class 1 |
| DDDDQLRSMIKSYNDNFQRGDFVRLLKMAPPDVKIRIGEDEISGREKANEFATRLEEEVDQVEAEIKSVTAHNGKASADILVEVNHNGETKHFTIEVHFDLQNGEVHLTEVVYK | class 3 |
| DDEDQKSTAEEIAKALQTGDKDKVTELFDEDARLKIGDTEFHGREQVSRAVHEIKTRVDHMELKDMEFTGDHVRIVYIANVDGHHATFVAHVVLNNGTAKSMSLSVRDERDKESVDK | class 2 |
| DEEDDKKMAETLKRLHNTGNPDELLKHFDPDAKFQIGEKTVHGREQAQEFMKRIKDRVDHQSVDSIHAHNGQVNVQVKVEINGKTRVVDIVYHFHNGRFKQVVFDPRAIRRMKS | class 1 |
| DERQNERFETLVKAIEEGDEDEAREQMDPNVRIEVGDKVIHGMDEFADTVRRTREELRVEFKIKRLRIKNGQVDVEMHVTFDHNGEPETARMVIKVNAHNGKIKNVVMRIHK | class 3 |

All values here come from the NTF2 design screens of Basanta et al. (2020).
